# Test system: RS4-11 (B-Lymphoblastic Leukemia)
# assay-info: combination Emax (second highest fraction inhibited in the dose matrix, 72 h); higher = more inhibition; extreme values may be limits of the assay
For each of the compounds below, state its combination Emax.
// response body must contain only the number

# get_value(readout='combination Emax', item= CCN(CCO)CCCOc1ccc2c(Nc3cc(CC(=O)Nc4cccc(F)c4)[nH]n3)ncnc2c1 [AZD2811] + C[C@@H]1COCCN1C2=NC(=NC(=C2)C3(CC3)[S@](=N)(=O)C)C4=C5C=CNC5=NC=C4 [AZD6738] (first compound max 1 µM, 7x7, partner max 10 µM) )
1

Another compound to check: COc1cc2c(cc1OCCCCCOc1cc3c(cc1OC)C(=O)N1C=C(C)C[C@H]1C=N3)N=C[C@@H]1CC(C)=CN1C2=O [SG3199] + O=C(c1cc(Cc2n[nH]c(=O)c3ccccc23)ccc1F)N1CCN(C(=O)C2CC2)CC1 [Olaparib] (first compound max 0.001 µM, 7x7, partner max 10 µM)
0.591

// query: CN(C)CCCOc1ccc(-c2ccc3ncc4c(c3c2)n(C2CCOCC2)c(=O)n4C)cn1 [AZD0156] + CCN(CCO)CCCOc1ccc2c(Nc3cc(CC(=O)Nc4cccc(F)c4)[nH]n3)ncnc2c1 [AZD2811] (first compound max 1 µM, 7x7, partner max 1 µM)
0.979

Query C=CCn1c(=O)c2cnc(Nc3ccc(N4CCN(C)CC4)cc3)nc2n1-c1cccc(C(C)(C)O)n1 [AZD1775] + C1CN(CCC1(C(=O)N[C@@H](CCO)C2=CC=C(C=C2)Cl)N)C3=NC=NC4=C3C=CN4 [Capivasertib] (first compound max 3 µM, partner max 3 µM) next
0.939
